System: HOP-92 NSCLC
Experiment: NCI-60 one-dose screen, 48 h (100 = growth as untreated, 0 = no growth, -100 = all killed)
Details: 10 µM unless noted
The panel holds about 83,000 compounds, 20% with a hit somewhere; the sample as a whole holds those more often.
Observed property: growth (%)
Give the value, in units of %, as a plain number.

# annotated cases, reported growth shown
C[C@]12CCc3nc(Nc4ccc(O)cc4)sc3C1=CC[C@@H]1[C@@H]2CC[C@]2(C)/C(=N/NC(N)=S)CC[C@@H]12 | -19.3
COc1ccc2[nH]c(O)c(/C=c3/ccc4c(c3)N=C(c3ccc(C(F)(F)F)cc3)N=4)c2c1 | 71.9
O=C1OCC2=C1C(c1cccc(Br)c1)c1cc3c(cc1N2CCO)OCCO3 (centres undefined) | 25.2
CC(=O)c1ccc(Nc2nc(Cl)nc(Oc3c(Cl)cccc3Cl)n2)cc1 | 81.2
COc1ccc(C2=CC(c3ccc(OC)cc3Br)N3C=CSC3=N2)cc1 (centres undefined) | 77.4
COc1cccc(CC(C)=C(c2ccc(OCCCN(C)C)cc2)c2ccc(OCCCN(C)C)cc2)c1 | -53
CCCCC(CCc1ccccn1)C(=O)c1ccccc1 (centres undefined) | 94.9
CNCc1ccccc1CN(CC(=O)Nc1ccc2c(c1)CC1(C2)C(=O)Nc2ncccc21)C(=O)C(C)(C)C (centres undefined) | 104

Q) Dear colleague, I am looking for the recorded growth of the following molecule: "COc1ccc([C@@H]2[C@@H](Cl)C(=O)N2c2cc(OC)c(OC)c(OC)c2)cc1C"
A) 76
